Test system: SN12C
Assay: NCI tumour cell line growth inhibition, 48 h
Active and inactive are the calls of the source. Rule as the data show it: active = GI50 up to about 1.1 µM and inactive = higher.
measurement kind: GI50

>>> df
                                    molecule              measured
 0  COC(=O)c1cc2c(cc1CC(Cc1ccc3c(c1)CCC3)C(=O)OC)CCC2 (configuration not stated)   > 100 µM (inactive)
 1  CCCCCCCCC(O)c1ccc(/C=C\C(O)CCCC(=O)O)s1 (configuration not stated)   > 100 µM (inactive)
 2  Nc1ncnc2c1ncn2C(=O)NC12CC3CC(CC(C3)C1)C2   > 100 µM (inactive)
 3  COC(=O)[C@H](Cc1ccccc1)NC(=O)c1ccc(CNC(=O)/C=C/c2ccc(OCc3ccccc3)cc2)cc1    13.9 µM (inactive)
 4  O=C1OC(CC(=O)c2ccc(Cl)cc2)C(Cl)=C1Cl (configuration not stated)   > 100 µM (inactive)
 5  Cn1cnc([N+](=O)[O-])c1Sc1nnc(-c2cccnc2)n1C    25.4 µM (inactive)
 6                  Cc1csc(NCc2ccc(Cl)cc2)n1    81.5 µM (inactive)
 7  O=C(/C=C/c1ccccc1)CSc1nc2ccc(I)cc2c(=O)n1Cc1ccccc1    9.86 µM (inactive)
 8  Cc1ccc(/C=C2\CCS(=O)(=O)c3ccccc3C2=O)cc1    19.1 µM (inactive)
 9  COC(=O)/C=C1\C(=O)N(C(C)=O)c2ccc(Br)cc21    5.71 µM (inactive)
10  CC(NC(=O)C(C)NC(=O)C(N)CCP(C)(=O)O)C(=O)O (configuration not stated)   > 100 µM (inactive)
11                 C#CCOC(=O)c1ccccc1OC(C)=O   > 100 µM (inactive)
12  CC(C)=NN/C(=N\c1ccc(Cl)cc1)NS(=O)(=O)c1cc2ccccc2s1    50.7 µM (inactive)
13  C=C(C)C(=O)[C@@]12C(=O)[C@@H](C)CC[C@H]1[C@H](C)C[C@@H]2C=C(C)C    20.8 µM (inactive)
14      O=C(/C=C/c1ccc(OCc2cccc(Cl)c2)cc1)NO    20.6 µM (inactive)
15   O=C1Nc2ccccc2/C1=C\c1c(Cl)[nH]c2ccccc12    2.85 µM (inactive)
16  C[N+]1(C)C2CC(OC(=O)C(CO)c3ccccc3)CC1C1OC12 (configuration not stated)   > 100 µM (inactive)
17  Cc1cccc(C(C)C)c1N1C(=O)C(=O)C(c2nc3ccccc3o2)C(=O)C1=O   > 100 µM (inactive)
18  Nc1ccccc1/N=C/c1cc2cc([N+](=O)[O-])ccc2s1    23.8 µM (inactive)
19  CC(C)=CCN1CC(C)C(=O)Nc2ccccc21 (configuration not stated)   > 100 µM (inactive)
20  S=c1[nH]nc(Cn2c3ccc(Br)cc3c3nc4ccccc4nc32)o1    51.9 µM (inactive)
21  C=C1C(=O)c2cc3c(cc2C(c2cc(OC)c(OC)c(OC)c2)[C@@H]1C(=O)O)OCO3 (some centres not stated)    43.1 µM (inactive)
22  COc1cc(-c2cc(O)c(-c3ccc4ccccc4n3)c(O)n2)cc(OC)c1OC  > 56.6 µM (inactive)
23              NC(=O)NNC/C(Cl)=C(\Cl)C(=O)O   > 100 µM (inactive)
24  O=C(c1ccc(NCN2C(=O)CCC2=O)cc1)c1ccc(NCN2C(=O)CCC2=O)cc1   > 100 µM (inactive)
25  COc1ccc([C@H]2C=C(c3cc(F)c(Cl)cc3Cl)NC(=S)N2)cc1    21.3 µM (inactive)
26  CC12CP(=O)(c3ccccc3)CC1c1ccccc1C2c1ccccc1 (configuration not stated)    17.9 µM (inactive)
27  Nc1ccc(-c2nnc(-c3c(Cl)c(Cl)c(Cl)c(Cl)c3-c3nc4cc(C(=O)c5ccccc5)ccc4[nH]3)o2)cc1    16.8 µM (inactive)
28          O=C(/C=C/C=C/c1ccccc1)CCc1ccccc1   > 100 µM (inactive)
29  Fc1ccccc1C1CC(C(c2ccccc2)c2ccccc2)=Nc2ccccc2S1 (configuration not stated)    10.2 µM (inactive)
30  CC(=O)OCC1OC(n2c(C)c(/N=N/c3ccccc3)c(C)c(C#N)c2=S)C(OC(C)=O)C(OC(C)=O)C1OC(C)=O (configuration not stated)    81.5 µM (inactive)
31  O=C1Nc2ccccc2C1(O)Cc1ccccn1 (configuration not stated)   > 100 µM (inactive)
32       COc1cccc(Cc2c3cc(OC)ccc3cc[n+]2C)c1    32.6 µM (inactive)
33  CC(C)CC(Nc1c(O)ccc2ccccc12)C(=O)O (configuration not stated)    29.3 µM (inactive)
34  COC(=O)CCC(NC(=S)N/N=C/c1ccccn1)C(=O)OC (configuration not stated)   > 100 µM (inactive)
35  COC(=O)N/N=C(/CC1(O)C(=O)Nc2ccc([N+](=O)[O-])cc21)c1ccccc1 (configuration not stated)    > 74 µM (inactive)
36      O=C1N/C(=N\N=C\c2ccccc2)C2(CCCCC2)O1    95.3 µM (inactive)
